// reported HTRF max. signal (% delta F) for each item listed
- Target Or System: HCV NS3/4A PR (S139A) (Hepatitis C virus subtype 1a, UniProt A8DG50, A1066T/I1043Q/I1044E/L1039E/L1040E/L1047Q/S1165A, form not given)
- Test Protocol: HTRF binding screen
- Experimental Conditions: in the presence of simeprevir
State just the number; it will be interpreted in % delta F.

Use the examples below as a reference point.
{"columns": ["Molecule", "HTRF max. signal (% delta F)"],
 "data": [
  ["PRSIM_36: Tn3 PRSIM binding molecule, SEQ ID NO: 8 (protein, PRSIM_36) RLDAPSQIEVKDVTDTTALITWSWPRDDDYDIWYFELTYGIKDVPGDRTTIKLLNYASPYSIGNLKPDTEYEVSLISVVPDTYGRGTSNPAKITFKTGL", 1440],
  ["PRSIM_23: Tn3 protein specific for HCV NS3/4A PR (S139A):simeprevir complex, SEQ ID NO: 5 (protein, PRSIM_23) RLDAPSQIEVKDVTDTTALITWVDPRYDDIWWFELTYGIKDVPGDRTTIKLYLNDPYYSIGNLKPDTEYEVSLISYTGDSYSRSGSNPAKITFKTGL", 1573],
  ["PRSIM_57: scFv specific for HCV NS3/4A PR (S139A):simeprevir complex, SEQ ID NO: 12 (protein, PRSIM_57) scFv: QVQLVQSGAEVKKPGSSVKVSCKASGGTFSSYAISWVRQAPGQGLEWMGGIIPIFGTANYAQKFQGRVTITADESTSTAYMELSSLRSEDTAVYYCARHTNYITVFDYWGQGTLVTVSSGGGGSGGGGSGGGGSAQSVLTQPPSASGTPGQRVTISCSGSSSNIGSNTVNWYQQLPGTAPKLLIYSNNQRPSGVPDRFSGSKSGTSASLAISGLQSEDEADYYCAAWDHHWEQVVFGGGTKLTVL", 1076],
  ["PRSIM_75: scFv PRSIM binding molecule, SEQ ID NO: 15 (protein, PRSIM_75) scFv: EVQLVQSGAEVKKPGSSVKVSCKASGGSFNSYTLDWVRQAPGQGLEWMGGIIPVFGSPNYGQKFQGRVTITADESTSTAYMELSSLKSDDTAVYYCARGLVYQPLDSWGRGTLVTVSSGGGGSGGGGSGGGGSAQAVLTQPSSASGTPGQRVTISCSGSSSNIGSYTVNWYQQFPGTAPKLLIYSNTQRPSGVPDRFSGSKSGTSASLAISGLQSEDEADYYCAAWDDSLNGWVFGGGTKVTVL", 1030],
  ["PRSIM_33: Tn3 PRSIM binding molecule, SEQ ID NO: 7 (protein, PRSIM_33) RLDAPSQIEVKDVTDTTALITWYPPGRWYDDIWYFELTYGIKDVPGDRTTIKLARGDDVYSIGNLKPDTEYEVSLISWGPDRGDRAGSNPAKITFKTGL", 1704],
  ["PRSIM_67: scFv PRSIM binding molecule, SEQ ID NO: 13 (protein, PRSIM_67) scFv: EVQLVQSGAEVKKPGAAVRISCKTSGYVFTSYYVHWVRQAPGQGLEWMGVINPSGGNTNYAQKFQDRVTMTRDTSTTTVYMELSSLMFDDTAVYYCAKRDYGGPLANWGRGTLVTVSSGGGGSGGGGSGGGGSALSYELTQPPSVSEAPRQRVTISCSGSSSNIGNNAVNWYQQLPGKAPKLLIFYDDLLPSGVSDRFSGSKSGTSASLAISGLQSEDEADYYCAAWDDSLNGLVFGTGTKLTVL", 1708],
  ["PRSIM_72: scFv PRSIM binding molecule, SEQ ID NO: 14 (protein, PRSIM_72) scFv: QVQLVQSGAEVKKPGSSVKVSCKASGGTFSSYAISWVRQAPGQGLEWMGGIIPIFGTANYAQKFQGRVTITADESTSTAYMELSSLRSEDTAVYYCARGMAHFYQFDLWGQGTLVTVSSGGGGSGGGGSGGGGSAQSVLTQPPSASGTPGQRVTISCSGSSSNIGSNTVNWYQQLPGTAPKLLIYSNNQRPSGVPDRFSGSKSGTSASLAISGLQSEDEADYYCAAGDHDHEHVVFGGGTKLTVL", 1107],
  ["PRSIM_47: Tn3 PRSIM binding molecule, SEQ ID NO: 9 (protein, PRSIM_47) RLDAPSQIEVKDVTDTTALITWSRPGVSIWYFELTYGIKDVPGDRTTIKLDYRSYYYSIGNLKPDTEYEVSLISGSYGLVGVRASNPAKITFKTGL", 1367],
  ["PRSIM_32: Tn3 PRSIM binding molecule, SEQ ID NO: 6 (protein, PRSIM_32) RLDAPSQIEVKDVTDTTALITWWSPRYYYASISGFELTYGIKDVPGDRTTIKLDYASNDYSIGNLKPDTEYEVSLISWNYGDWRYSSSNPAKITFKTGL", 1955]
]}

Note: attention shifts to another entry.
The value of HTRF max. signal (% delta F) measured for the molecule PRSIM_04: scFv PRSIM binding molecule, SEQ ID NO: 11 (protein, PRSIM_04) scFv: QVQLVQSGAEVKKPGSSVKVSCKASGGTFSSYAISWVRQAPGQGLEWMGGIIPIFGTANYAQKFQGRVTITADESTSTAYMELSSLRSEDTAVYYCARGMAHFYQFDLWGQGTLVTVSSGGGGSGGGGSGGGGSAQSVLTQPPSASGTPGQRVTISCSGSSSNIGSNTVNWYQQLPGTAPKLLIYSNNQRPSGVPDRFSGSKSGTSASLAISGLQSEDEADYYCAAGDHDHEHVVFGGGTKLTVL turned out to be 1055

The origin of these recorded values is patent US20220380801A1.
